The reader will find reported Activity values listed item by item below.
- Test system: Influenza A virus
- experimental.protocol: Antiviral activity against Influenza A virus A/WSN/33(H1N1) infected in MDCK cells at 100 uM preincubated with virus for 15 mins followed by cells addition measured at 36 hrs post infection
- Assay type: functional, A/WSN/1933(H1N1)

Solved entries:
1) C[C@@H]1[C@@H](O[C@@H]2O[C@H](C(=O)O)[C@@H](O)[C@H](O)[C@H]2O[C@@H]2O[C@H](C(=O)O)[C@@H](O)[C@H](O)[C@H]2O)CC[C@]2(C)[C@H]3CC=C4[C@H]5C[C@@](C)(C(=O)O)CC[C@]5(C)CC[C@@]4(C)[C@]3(C)CC[C@@H]12: 47%
2) CC1(C)[C@@H](O)CC[C@]2(C)[C@H]3C(=O)C=C4[C@H]5C[C@@](C)(C(=O)O)CC[C@]5(C)CC[C@@]4(C)[C@]3(C)CC[C@@H]12: 58%

Next item in the queue.
Enquiry: Report Activity for "COc1c(CC=C(C)C)c(O)cc2oc(-c3ccc(O)cc3O)cc12" please.
Return: >30%

====

- experimental.protocol: Inhibition of NFkappaB transcription in human SW480 cells at by luciferase reporter gene assay
- Assay type: cell-based
Peptide text beside a SMILES is read from it. * marks the point of attachment. Cbz = O=C(OCc1ccccc1)*
endpoint.label: IC50
Please append the unit to your numeric answer.

Solved entries:
1) CC1(C)C=Cc2c(ccc3c2OC[C@@H](c2ccc(O)cc2O)C3)O1: 21.4 µM
2) COc1cc(O)cc2c1[C@@H]1Oc3c(ccc4c3C=CC(C)(C)O4)[C@@H]1CO2: 25.8 µM

Enquiry: Report IC50 for COc1ccc2c(c1)OC1C2COC2=CC(=O)CCC21O (stereo unspecified) please.
Return: 16.9 µM

Enquiry: Report IC50 for COc1cc2c(c(OC)c1CC=C(C)C)C1c3ccc(O)cc3OC1(O)CO2 (stereo unspecified) please.
Return: 24.6 µM

Enquiry: Report IC50 for "COc1c(CC=C(C)C)c(O)cc2oc(-c3ccc(O)cc3O)cc12" please.
Return: 5.1 µM

Enquiry: Report IC50 for CC(C)C[C@@H](C=O)NC(=O)[C@H](CC(C)C)NC(=O)[C@H](CC(C)C)NC(=O)OCc1ccccc1 [MG-132] (Cbz-Leu-Leu-Leu-aldehyde) please.
Return: 29.5 µM

====

- System: A549
- experimental.protocol: Cytotoxicity against human A549 cells assessed as reduction in cell viability after 24 hrs by MTS assay
- Type: functional, cell-based
- condition.notes: A549, 24 h
The reader will find reported IC50 values listed item by item below.
I only need the number, in µM, no unit after it.

Solved entries:
1) CCc1c2c(nc3ccc(OC(=O)N4CCC(N5CCCCC5)CC4)cc13)-c1cc3c(c(=O)n1C2)COC(=O)[C@]3(O)CC: 0.8
2) CC(C)=CCc1c(O)ccc(-c2coc3cc(O)c(CC=C(C)C)c(O)c3c2=O)c1O: 7.1
3) CC(C)=CCc1cc(-c2coc3cc(O)c(CC=C(C)C)c(O)c3c2=O)cc(O)c1O: 6.4
4) COc1c(CC=C(C)C)c(O)cc2c1C[C@H](c1ccc(O)c(CC=C(C)C)c1O)CO2: 6.9
5) COc1c(-c2ccc(O)cc2)oc2cc(O)c(CC=C(C)C)c(O)c2c1=O: 23.1

Enquiry: Report IC50 for "CC(C)=CCc1c(O)cc2occ(-c3ccc(O)c(O)c3)c(=O)c2c1O" please.
Return: 20.3

Enquiry: Report IC50 for "COc1cc2c(c(OC)c1CC=C(C)C)C[C@H](c1ccc(O)cc1O)CO2" please.
Return: 12.9

====

- Tested on: RAW264.7
- experimental.protocol: Antiinflammatory activity in mouse RAW264.7 cells assessed as inhibition of LPS-induced nitric oxide production after 24 hrs by Griess assay
- Format: functional, cell-based
- condition.notes: RAW264.7, 24 h
endpoint.label: pIC50
The value called pIC50 is obtained by taking minus log10 of the concentration in mol/L.

Solved entries:
1. COc1c2c(cc(O)c1CC=C(C)C)OCC(c1ccc(O)cc1O)=C2: 5.09
2. COc1c(CC=C(C)C)c(O)cc2oc(-c3ccc(O)cc3O)cc12: 5.07
3. COc1cc(/C=C/C(=O)CC(=O)/C=C/c2ccc(O)c(OC)c2)ccc1O: 4.72

Next item in the queue.
Enquiry: Report pIC50 for "COc1c(-c2ccc(O)c(CC=C(C)C)c2)oc2cc(O)cc(O)c2c1=O" please.
Return: 4.92

====

- Tested on: Influenza A virus
- experimental.protocol: Antiviral activity against Influenza A virus A/WSN/33(H1N1) infected in MDCK cells at 100 uM preincubated with virus for 15 mins followed by cells addition measured at 36 hrs post infection
- Type: functional, A/WSN/1933(H1N1)
The reader will find reported Activity values listed item by item below.
I only need the number, in %, no unit after it.

Enquiry: Report Activity for "CC(=O)O[C@H]1C[C@@](C)(C(=O)O)C[C@H]2C3=CC(=O)[C@H]4[C@]5(C)CC[C@@H](O[C@@H]6O[C@H](C(=O)O)[C@@H](O)[C@H](O)[C@H]6O[C@H]6O[C@@H](C(=O)O)[C@H](O)[C@@H](O)[C@@H]6O[C@H]6O[C@H](C)[C@@H](O)[C@H](O)[C@@H]6O)C(C)(C)[C@H]5CC[C@]4(C)[C@@]3(C)CC[C@]12C" please.
Return: 47

Enquiry: Report Activity for "CC(=O)O[C@@H]1C[C@](C)(C(=O)O)C[C@@H]2C3=CC(=O)[C@@H]4[C@@]5(C)CC[C@H](O[C@@H]6O[C@H](C(=O)O)[C@@H](O)[C@H](O)[C@H]6O[C@@H]6O[C@H](C(=O)O)[C@@H](O)[C@H](O)[C@H]6O)[C@](C)(CO)[C@@H]5CC[C@@]4(C)[C@]3(C)CC[C@]21C" please.
Return: 47

====

- Test system: Influenza A virus
- experimental.protocol: Antiviral activity against Influenza A virus A/WSN/33(H1N1) infected in MDCK cells at 100 uM preincubated with virus for 15 mins followed by cells addition measured at 36 hrs post infection
- Assay type: functional, A/WSN/1933(H1N1)
endpoint.label: Activity

Solved entries:
1. CC(C)(O)CCc1c(O)cc2occ(-c3ccc(O)c(O)c3)c(=O)c2c1O: >30%
2. CC1(C)[C@@H](O[C@@H]2O[C@H](C(=O)O)[C@@H](O)[C@H](O)[C@H]2O[C@@H]2OC[C@H](O)[C@H](O)[C@H]2O)CC[C@]2(C)[C@H]3C(=O)C=C4[C@H]5C[C@@](C)(C(=O)O)CC[C@]5(C)CC[C@@]4(C)[C@]3(C)CC[C@@H]12: 47%
3. C[C@@H]1O[C@@H](O[C@H]2[C@H](O[C@@H]3[C@@H](O[C@@H]4CC[C@]5(C)[C@H](CC[C@@]6(C)[C@H]5C(=O)C=C5[C@@H]7C[C@]8(C)C[C@@H](COC8=O)[C@@]7(C)CC[C@@]56C)C4(C)C)O[C@@H](C(=O)O)[C@H](O)[C@H]3O)O[C@H](C(=O)O)[C@@H](O)[C@@H]2O)[C@H](O)[C@H](O)[C@H]1O: 47%
4. C[C@]1(C(=O)O)CC[C@]2(C)CC[C@]3(C)C(=CC(=O)[C@@H]4[C@@]5(C)CC[C@H](O[C@@H]6O[C@H](C(=O)O)[C@@H](O)[C@H](O)[C@H]6O[C@@H]6O[C@H](C(=O)O)[C@@H](O)[C@H](O)[C@H]6O)[C@](C)(CO)[C@@H]5CC[C@]43C)[C@H]2C1: 47%
5. C[C@]1(C(=O)O)CC[C@@]2(C)CC[C@@]3(C)C(=CC(=O)[C@H]4[C@]5(C)CC[C@@H](O[C@H]6O[C@@H](C(=O)O)[C@H](O)[C@@H](O)[C@@H]6O[C@H]6O[C@@H](C(=O)O)[C@H](O)[C@@H](O)[C@@H]6O)[C@@](C)(CO)[C@H]5CC[C@@]43C)[C@@H]2C1: 47%
6. CC(C)=CCc1c(O)ccc(-c2coc3c(CC=C(C)C)c(O)cc(O)c3c2=O)c1O: >30%
7. CC1(C)[C@@H](O[C@@H]2O[C@H](C(=O)O)[C@@H](O)[C@H](O)[C@H]2O[C@@H]2O[C@H](C(=O)O)[C@@H](O)[C@H](O)[C@H]2O)CC[C@]2(C)[C@H]3C(=O)C=C4[C@H]5C[C@](C)(C(=O)O)CC[C@]5(C)CC[C@@]4(C)[C@]3(C)CC[C@@H]12: 47%

Next item in the queue.
Enquiry: Hi! What's the reported Activity for "CC(=O)O[C@@H]1C[C@](C)(C(=O)O)C[C@@H]2C3=CC(=O)[C@@H]4[C@@]5(C)CC[C@H](O[C@H]6O[C@@H](C(=O)O)[C@H](O)[C@@H](O)[C@@H]6O[C@H]6O[C@@H](C(=O)O)[C@H](O)[C@@H](O)[C@@H]6O)C(C)(C)[C@@H]5CC[C@@]4(C)[C@]3(C)CC[C@]21C" on Influenza A virus?
Return: 47%

Data origin: ChEMBL document CHEMBL3808312
